Data provenance is patent US7829563B2.

- target: human orexin-2 (hOX2) receptors (Homo sapiens)
- Construct: expressed in transfected cells
- Sequence (O43614 1-444): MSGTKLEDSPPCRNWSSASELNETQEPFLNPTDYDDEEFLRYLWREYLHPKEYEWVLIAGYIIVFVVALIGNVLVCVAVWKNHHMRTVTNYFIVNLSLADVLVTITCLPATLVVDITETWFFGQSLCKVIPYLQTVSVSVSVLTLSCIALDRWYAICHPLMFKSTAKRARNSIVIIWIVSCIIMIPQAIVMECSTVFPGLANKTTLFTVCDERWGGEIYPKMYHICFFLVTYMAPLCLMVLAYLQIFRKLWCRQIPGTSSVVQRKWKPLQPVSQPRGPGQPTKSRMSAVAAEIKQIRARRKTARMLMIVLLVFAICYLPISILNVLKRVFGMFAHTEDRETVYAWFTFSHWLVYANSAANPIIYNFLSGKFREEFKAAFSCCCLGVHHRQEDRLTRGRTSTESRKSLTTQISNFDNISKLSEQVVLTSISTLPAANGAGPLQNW
- experiment summary: Intracellular Ca2+ mobilization assay (FLIPR), antagonism of orexin-A
- Format: cell-based
- assay setup: CHO(dHFr−) cells stably expressing hOX2; orexin-A at EC80 as agonist; Kb=IC50/(1+[A]/EC50); read-out: Kb (μM) OX2R (human)
experimental readout: Kb (µM)

>>> numeric_result("CNC(=O)[C@H](N[C@H](CCc1ccc(C(F)(F)F)nc1)c1ccc(Cl)c(OC)c1)c1ccccc1 (racemic) [Example 215]")
0.008

(P) CNC(=O)[C@H](N[C@@H](CCc1ccc(C(F)(F)F)nc1)c1ccc(Cl)c(OC)c1)c1ccc(F)cc1 (racemic) [Example 224]
(Q) CNC(=O)[C@H](N[C@@H](CCc1ccc(C(F)(F)F)nc1)c1ccc(F)c(OC)c1)c1ccccc1 (racemic) [Example 232]
(R) CNC(=O)[C@H](N[C@@H](CCc1ccc(C(F)(F)F)nc1)c1ccc(C)c(Cl)c1)c1ccccc1 (racemic) [Example 238]
Order the records so the highest Kb appears first and the lowest last. // rank by listing labels in the order requested
R, Q, P
(R: 0.0196 µM, Q: 0.0085 µM, P: 0.0057 µM)

----------
- target: human orexin-2 (hOX2) receptors (Homo sapiens, UniProt O43614)
- Construct: expressed in transfected cells
- Sequence (O43614 1-444): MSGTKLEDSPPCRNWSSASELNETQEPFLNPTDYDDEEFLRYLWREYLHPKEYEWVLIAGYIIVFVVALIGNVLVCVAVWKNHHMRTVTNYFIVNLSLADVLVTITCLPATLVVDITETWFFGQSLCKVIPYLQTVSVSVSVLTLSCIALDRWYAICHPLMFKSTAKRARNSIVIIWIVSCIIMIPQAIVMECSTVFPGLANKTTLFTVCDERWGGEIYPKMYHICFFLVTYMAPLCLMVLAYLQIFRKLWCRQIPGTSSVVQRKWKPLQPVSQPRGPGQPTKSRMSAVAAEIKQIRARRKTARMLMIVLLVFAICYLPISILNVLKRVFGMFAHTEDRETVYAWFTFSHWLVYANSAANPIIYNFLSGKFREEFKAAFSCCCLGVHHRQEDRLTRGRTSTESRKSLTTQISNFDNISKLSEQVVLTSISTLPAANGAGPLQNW
- experiment summary: Intracellular Ca2+ mobilization assay (FLIPR), antagonism of orexin-A
- Assay type: cell-based
- assay setup: CHO(dHFr−) cells stably expressing hOX2; orexin-A at EC80 as agonist; Kb=IC50/(1+[A]/EC50); read-out: Kb (μM) OX2R (human)
experimental readout: Kb (µM)

>>> numeric_result("CNC(=O)[C@H](N[C@H](CCc1ccc(C(F)(F)F)cc1)c1cc(C)on1)c1ccccc1 (racemic) [Example 301]")
0.0116
>>> numeric_result("CNC(=O)[C@H](N[C@@H](CCc1ccc(C(F)(F)F)cc1)c1cc(C)on1)c1ccccc1 (racemic) [Example 302]")
0.0161
>>> numeric_result("CNC(=O)[C@H](N[C@@H](CCc1ccc(C(F)(F)F)cc1)c1ccc2c(c1)OCCN2C)c1ccccc1 (racemic) [Example 78]")
0.0127
>>> numeric_result("CNC(=O)[C@H](N[C@@H](CCc1ccc(OC)cc1)c1ccc(OC)c(OC)c1)c1ccccc1 (racemic) [Example 146]")
0.0132
